- SYSTEM UNDER TEST: glucose-6-phosphate dehydrogenase-6-phosphogluconolactonase (Plasmodium falciparum 3D7)
- PROTOCOL SUMMARY: PfG6PD enzyme inhibitors, direct NADPH readout, SAR follow-up, orthogonal assay, biochemical, end-point NADPH detection (AID 588588)
- ASSAY CONTEXT: recombinant PfG6PD-6PGL
Calls of active or inactive are those of the source. The rule behind the calls is not given here.
Respond only with the outcome that fits, drawn from active, inactive

Cc1ccc(CN2C(=O)c3ccccc3Sc3ccc(C(=O)NCCN(C)C)cc32)cc1: inactive

# evaluate next
Can you look up the reported call for O=C(Nc1nnc(S(=O)(=O)N2CCCCCC2)s1)c1cccc(F)c1 for me? inactive

====

Consider the following compounds and their measured IC50 readings.
- SYSTEM UNDER TEST: glucose-6-phosphate dehydrogenase-6-phosphogluconolactonase (Plasmodium falciparum 3D7)
- PROTOCOL SUMMARY: PfG6PD enzyme inhibitors, direct NADPH readout, SAR follow-up, orthogonal assay, biochemical, end-point NADPH detection (AID 588588)
- ASSAY CONTEXT: recombinant PfG6PD-6PGL
Active and inactive are the calls of the source. No rule for the calls is given here.

CCN1CCCC1CNC(=O)c1ccc2c(c1)NC(=O)c1ccccc1O2 (stereo not drawn): 24.2 µM
O=C1Nc2cc(C(=O)NCCN3CCCC3)ccc2S/C1=C\c1ccccc1F: > 80 µM (inactive)
Cc1ccc(C(=O)Nc2nnc(S(=O)(=O)N3CCCc4ccccc43)s2)cc1: > 80 µM (inactive)
CN1CCCC1CCNC(=O)c1ccc2c(c1)NC(=O)/C(=C/c1ccccc1F)S2 (stereo not drawn): > 80 µM (inactive)

Bench note: what IC50 did CCN(CCNC(=O)c1ccc2c(c1)N(Cc1cc(C)ccc1C)C(=O)c1ccccc1S2)c1ccccc1 show? > 80 µM (inactive)

Then O=C(Nc1nnc(S(=O)(=O)N2CCCCCC2)s1)c1ccc(F)cc1 ? > 80 µM (inactive)

Then CCN1CCCC1CNC(=O)c1ccc2c(c1)N(Cc1cccc(F)c1)C(=O)c1ccccc1S2 (stereo not drawn) ? > 80 µM (inactive)

Then CCN1CCCC1CNC(=O)c1ccc2c(c1)NC(=O)CO2 (stereo not drawn) ? > 80 µM (inactive)
